Where do these numbers come from? They come from a melting point compilation (Tetko et al.; mined from patent text by program, amines drawn as free bases though some values may be those of a salt).

measurement_kind: melting point

CCCn1nc(C2CC2)c(C(=O)OCC)c1Cc1ccc(-c2ccccc2-c2nnn[nH]2)cc1
148 to 149 °C
CCOC(=O)N1CCN(c2nc(NC3CC3)ccc2[N+](=O)[O-])CC1
100 to 103 °C
Cc1cc(CCCOc2c(C)cc(C#N)cc2C)on1
46 to 48 °C
Cc1cc(C)c2nc(CO)n(C)c2n1
178 to 179 °C
CC(C)(C)NCCCS(=O)(=O)O
> 280 °C

Now look at this one.
Inquiry: Dear colleague, I am looking for the recorded melting point of the following compound: CC(C)c1cccc(C(C)C)c1NC(=O)N(Cc1ccc(N(C)C)cc1)c1ccc(F)cc1
Reply text: 124 to 125 °C
